target_or_system: human GPR120 (Homo sapiens)
Construct: Flag (DYKDDDDK) (N); host or cells: HEK293 cells co-expressing Gqi5
test_details: Intracellular Ca2+ assay (FLIPR Calcium 4, Flexstation) in human GPR120 stable cell line
Assay type: cell-based
measurement_parameters: % activity at 2.5 μM compared to the maximal activity of the compound of Example 25 at 2.5 μM; HEK293 cells co-expressing Gqi5
measurement_name: % Activity (Ex. 25 Reference Compound) (%)

> print(dat)
                                   compound                        measurement.name  test.value
1  Cc1c(CCC(=O)O)ccc(OCc2cc(Cl)cc3c2CC(C)(C)O3)c1C [Example 267]  % Activity (Ex. 25 Reference Compound)      140.82
2  CC1(C)Cc2cc(F)cc(COc3ccc(CCC(=O)O)c(OC(F)(F)F)c3)c2O1 [Example 136]  % Activity (Ex. 25 Reference Compound)      140.51
3  CCCc1cc(OCc2cc(Cl)cc3c2OC(C)(C)C3)c(F)cc1CCC(=O)O [Example 73]  % Activity (Ex. 25 Reference Compound)      114.85
4  CC(Cc1ccc(NC(=O)c2cc(F)cc3c2OC(C)(C)C3)cc1)C(=O)O (centres unmarked) [Example 68]  % Activity (Ex. 25 Reference Compound)       69.03

A. CCOC(Cc1cc(F)c(OCc2cc(F)cc3c2OC(C)(C)C3)c(F)c1)C(=O)O (centres unmarked) [Example 69]
B. COc1cccc(-c2cc(COc3ccc(CC(C)C(=O)O)cc3)c3c(c2)CC(C)(C)O3)c1 (centres unmarked) [Example 86]
INPUT: From the items above, decide which of A and B has the lower % Activity (Ex. 25 Reference Compound) reading. Return value: the label identifying the chosen record.
OUTPUT: B
(B: 5.23%, A: 78.46%)

----------
target_or_system: human GPR120 (Homo sapiens)
Construct: Flag (DYKDDDDK) (N); host or cells: HEK293 cells co-expressing Gqi5
test_details: Intracellular Ca2+ assay (FLIPR Calcium 4, Flexstation) in human GPR120 stable cell line
Assay type: cell-based
measurement_parameters: % activity at 2.5 μM compared to the maximal activity of the compound of Example 25 at 2.5 μM; HEK293 cells co-expressing Gqi5
measurement_name: % Activity (Ex. 25 Reference Compound) (%)

> print(dat)
                                   molecule                        measurement.name  test.value
1  [2H]C1([2H])c2cc(Cl)cc(COc3ccc(CC(C)C(=O)O)cc3F)c2OC1(C)C (stereo not drawn) [Example 146]  % Activity (Ex. 25 Reference Compound)      140.72
2  CC1(C)Cc2cc(Cl)cc(COc3ccc4c(c3)CC[C@H]4CC(=O)O)c2O1 [Example 176]  % Activity (Ex. 25 Reference Compound)      138.42
3  COc1cc(CCC(=O)O)c(Br)cc1OCc1cc(F)cc2c1OC(C)(C)C2 [Example 56]  % Activity (Ex. 25 Reference Compound)      108.51
4  Cc1nc2cccc(COc3c(F)cc(CC(C)C(=O)O)cc3F)c2o1 (stereo not drawn) [Example 261]  % Activity (Ex. 25 Reference Compound)      108.78
5  Cc1cc2c(OCc3cc(F)cc4c3OC(C)(C)C4)ccc(CCC(=O)O)c2o1 [Example 125]  % Activity (Ex. 25 Reference Compound)       32.57
6  CC1(C)Cc2cc(Cl)cc(COc3ccc4c(c3)CC(C(=O)O)C4)c2O1 (stereo not drawn) [Example 112]  % Activity (Ex. 25 Reference Compound)      115.42
7  CC1(C)Cc2cc(F)cc(COc3ccc4c(c3)CC[C@H]4CC(=O)O)c2O1 [Example 175]  % Activity (Ex. 25 Reference Compound)      152.44
8  CC(C)Oc1ccc(Cl)cc1COc1ccc2c(c1)CCC2CC(=O)O (stereo not drawn) [Example 258]  % Activity (Ex. 25 Reference Compound)      139.95

P. CC1(C)Cc2cc(Cl)cc(CNc3ccc(CCC(=O)O)cc3)c2O1 [Example 127]
Q. CC1(C)Cc2cc(Cl)cc(COc3ccccc3CCC(=O)O)c2O1 [Example 250]
R. Cc1cc2cc(Cl)cc(COc3ccc(CC(C)C(=O)O)cc3F)c2o1 (stereo not drawn) [Example 120]
INPUT: List by increasing % Activity (Ex. 25 Reference Compound). Please reply with the labels ordered as requested. Many thanks.
OUTPUT: Q, R, P

I. CC(Cc1cc(F)c(OCc2c(F)c(F)cc3c2OC(C)(C)C3)c(F)c1)C(=O)O (stereo not drawn) [Example 42]
II. CC(Cc1cc(F)c(OCc2cc(Cl)cc3c2OC(C)C3(C)C)c(F)c1)C(=O)O (stereo not drawn) [Example 109]
III. CC(C)C(CC(=O)O)c1ccc(OCc2cc(Cl)cc3c2OC(C)(C)C3)cc1 (stereo not drawn) [Example 266]
INPUT: List by increasing % Activity (Ex. 25 Reference Compound). Please reply with the labels ordered as requested. Many thanks.
OUTPUT: III, II, I
(III: 42.73%, II: 72.36%, I: 140.94%)

----------
target_or_system: human GPR120 (Homo sapiens, UniProt Q5NUL3)
Construct: Flag (DYKDDDDK) (N); host or cells: HEK293 cells co-expressing Gqi5
Sequence (Q5NUL3 whole entry): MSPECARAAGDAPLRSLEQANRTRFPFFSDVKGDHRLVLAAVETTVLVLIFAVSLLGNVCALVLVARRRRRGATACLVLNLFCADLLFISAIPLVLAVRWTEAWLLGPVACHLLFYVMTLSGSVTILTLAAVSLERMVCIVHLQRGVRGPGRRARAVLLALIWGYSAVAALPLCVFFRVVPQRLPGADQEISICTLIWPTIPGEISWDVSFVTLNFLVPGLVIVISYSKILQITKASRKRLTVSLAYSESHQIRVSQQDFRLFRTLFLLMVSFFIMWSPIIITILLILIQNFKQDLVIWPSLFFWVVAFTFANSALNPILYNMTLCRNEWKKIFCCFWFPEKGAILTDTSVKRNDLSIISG
test_details: Intracellular Ca2+ assay (FLIPR Calcium 4, Flexstation) in human GPR120 stable cell line
Format: cell-based
measurement_parameters: % activity at 2.5 μM compared to the maximal activity of the compound of Example 25 at 2.5 μM; HEK293 cells co-expressing Gqi5
Description: Human GPR120 stable cell line was purchased from Multispan Inc (26219 Eden Landing Road, Hayward, Calif. 94545). This GPR120 cell line was generated in HEK293 cells co-expressing Gqi5. […] The concentration of intracellular Ca^2+ was measured as described below. […] Compounds were dissolved in 100% DMSO and diluted to desired concentrations with assay buffer and placed in the Flexstation simultaneously with the cell plate for 20 minute incubation at 37° C. prior to reading. […]
measurement_name: % Activity (Ex. 25 Reference Compound) (%)

> print(dat)
                                   compound  test.value
1  CC(Cc1cc(F)c(OCc2cccc3cn[nH]c23)c(F)c1)C(=O)O (stereo not drawn)       16.67
2  CC1(C)Cc2cc(Cl)cc(COc3ccc(CCC(=O)O)c(F)c3)c2O1      143.19
3  CCN(CC)c1cc(COc2ccc(CC(C)C(=O)O)cc2)c2c(c1)CC(C)(C)O2 (stereo not drawn)       82.28
4  CCc1cc(OCc2cc(F)cc3c2OC(C)(C)C3)c(F)cc1CCC(=O)O      115.86
5  CC1(C)Cc2cc(Cl)cc(COc3ccc(C(C)(C)CC(=O)O)cc3)c2O1      148.87
6  Cc1cc(OCC(=O)O)ccc1OCc1cc(Cl)cc2c1OC(C)(C)C2       98.96
7  CC(Cc1ccc(COc2cccc3c2OC(C)(C)C3)c(F)c1)C(=O)O (stereo not drawn)      157.14
8  CC1(C)Cc2c(COc3ccc4c(c3)CCC4CC(=O)O)ccc(F)c2O1 (stereo not drawn)       98.45

1. Cc1cc(OCc2cc(F)cc3c2OC(C)(C)C3)ccc1CCC(=O)O
2. CC(Cc1cccc(OCc2cc(Cl)cc3c2OC(C)(C)C3)c1)C(=O)O (stereo not drawn)
INPUT: Field: entry with larger % Activity (Ex. 25 Reference Compound) (options 1 / 2 ). Return value: the label identifying the chosen record.
OUTPUT: 1

----------
target_or_system: human GPR120 (Homo sapiens)
Construct: Flag (DYKDDDDK) (N); host or cells: HEK293 cells co-expressing Gqi5
test_details: Intracellular Ca2+ assay (FLIPR Calcium 4, Flexstation) in human GPR120 stable cell line
Format: cell-based
measurement_parameters: % activity at 2.5 μM compared to the maximal activity of the compound of Example 25 at 2.5 μM; HEK293 cells co-expressing Gqi5
measurement_name: % Activity (Ex. 25 Reference Compound) (%)

Examples from the recorded data:
> print(dat)
                                   compound  unit  test.value
1  C[C@H](Cc1ccc(OCc2cc(F)cc3c2OC(C)(C)C3)cc1)C(=O)O     %      141.04
2  CC(CC(=O)O)c1cc(F)c(OCc2cc(Cl)cc3c2OC(C)(C)C3)c(F)c1 (centres unmarked)     %      154.51

a. CC(Cc1ccc(NCc2cc(F)cc3c2OC(C)(C)C3)cc1)C(=O)O (centres unmarked)
b. CC(CC(=O)O)Cc1ccc(OCc2cc(F)cc3c2OC(C)(C)C3)cc1 (centres unmarked)
INPUT: From the items above, decide which of a and b has the lower % Activity (Ex. 25 Reference Compound) reading. Return value: the label identifying the chosen record.
OUTPUT: b
(b: 98.43%, a: 141.82%)
